Here, each record is paired with measured melting point data.

Sample records with melting point:
>>> value_observed("Cc1ccc(-c2c3c(cc4ccc(O)cc24)-c2ccc(O)cc2CO3)cc1F [Example 41]")
"238 to 240 °C"
>>> value_observed("Cc1c2c(cc3ccc(O)cc13)-c1ccc(O)cc1CO2 [Example 21]")
"224 to 226 °C"
>>> value_observed("N#CCc1ccc(-c2c3c(cc4ccc(O)cc24)-c2ccc(O)cc2CO3)cc1 [Example 57]")
"240 to 242 °C"
>>> value_observed("Cc1ccc(-c2c3c(cc4ccc(O)cc24)-c2ccc(O)cc2CO3)cc1C [Example 39]")
"218 to 221 °C"
>>> value_observed("Oc1ccc2c(c1)COc1c-2cc2ccc(O)cc2c1-c1ccccn1 [Example 54]")
"> 220 °C"

response.value for OCc1ccccc1-c1c2c(cc3ccc(O)cc13)-c1ccc(O)cc1CO2 [Example 22] (field: melting point) = 171 to 173 °C

---

Molecular target: human ERβ (Homo sapiens, UniProt Q92731)
Construct: made in house; host or cells: E. coli (crude lysate)
Sequence (Q92731 264-498 limits assumed): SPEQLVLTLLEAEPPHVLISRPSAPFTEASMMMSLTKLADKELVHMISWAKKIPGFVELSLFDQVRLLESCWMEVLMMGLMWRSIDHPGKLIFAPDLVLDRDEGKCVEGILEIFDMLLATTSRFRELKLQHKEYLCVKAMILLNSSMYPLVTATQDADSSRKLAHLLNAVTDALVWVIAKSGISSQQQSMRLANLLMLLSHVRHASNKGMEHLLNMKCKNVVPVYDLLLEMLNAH
Assay: Competition with [3H]-17β-estradiol for binding to ERβ
Settings: ligand binding domain of human ERβ in E. coli crude lysate, 2 nM [3H]-17β-estradiol, 5-15 hours at room temperature
Method: Representative examples of the invention were evaluated for their ability to compete with 17β-estradiol for both ERα and ERβ. This test procedure provides the methodology for one to determine whether a particular compound binds to the estrogen receptor (and is therefore “estrogenic”) and whether there is selectivity for ERα or ERβ. […] After between 5 and 15 hours at room temperature, the plates were washed with DPBS/1 mM EDTA and bound radioactivity determined by liquid scintillation counting. […]
PARAMETER: IC50 (nM)

A = COc1c2c(c(Cl)c3ccc(O)cc13)-c1ccc(O)cc1CO2
B = N#CCc1ccc(-c2c3c(cc4ccc(O)cc24)-c2ccc(O)cc2CO3)cc1
C = CC(C)(C)c1ccc(-c2c3c(cc4ccc(O)cc24)-c2ccc(O)cc2CO3)cc1
D = Oc1ccc2c(c1)COc1c-2cc2ccc(O)cc2c1-c1cccnc1
Put the items in order so that reported IC50 rises from first to last. Enter labels, ranked according to the request. A, D, B, C

A = N#Cc1c2c(cc3ccc(O)cc13)-c1ccc(O)cc1CO2
B = Oc1ccc2c(c1)COc1c-2cc2ccc(O)cc2c1-c1ccccc1Cl
Hi, I'm comparing two records. Which one has the lower IC50, A or B ? Record your answer as the label of the chosen record. A
(A: 2.7 nM, B: 9.7 nM)

---

Molecular target: human ERβ (Homo sapiens)
Construct: made in house; host or cells: E. coli (crude lysate)
Test: Competition with [3H]-17β-estradiol for binding to ERβ
Settings: ligand binding domain of human ERβ in E. coli crude lysate, 2 nM [3H]-17β-estradiol, 5-15 hours at room temperature
PARAMETER: IC50 (nM)

>>> value_observed("COc1ccc(-c2c3c(cc4ccc(O)cc24)-c2ccc(O)cc2CO3)cn1 [Example 51]")
22

I = Oc1ccc2c(c1)COc1cc3cc(O)ccc3cc1-2 [Example 4, 5H-Dibenzo[c,g]chromene-3,9-diol]
II = COc1cccc(-c2c3c(cc4ccc(O)cc24)-c2ccc(O)cc2CO3)c1 [Example 34]
III = Oc1ccc2c(c1)COc1c-2cc2ccc(O)cc2c1-c1ccc(OC(F)(F)F)cc1 [Example 59]
IV = COc1c2c(c(Br)c3ccc(O)cc13)-c1ccc(O)cc1CO2 [Example 19]
Form: Sort by [IC50] Order [ ascending ] Enter labels, ranked according to the request. IV, I, II, III
(IV: 3.3 nM, I: 7.9 nM, II: 17 nM, III: 34 nM)

---

Here, each record is paired with measured melting point data.

Sample records with melting point:
>>> value_observed("COc1ccc(-c2c3c(cc4ccc(O)cc24)-c2ccc(O)cc2CO3)cc1 [Example 27]")
"200 to 203 °C"
>>> value_observed("Oc1ccc2c(c1)COc1c-2cc2ccc(O)cc2c1-c1ccccc1F [Example 38]")
"240 to 242 °C"
>>> value_observed("Oc1ccc2c(c1)COc1c-2cc2ccc(O)cc2c1-c1ccc(F)cc1 [Example 29]")
"229 to 232 °C"
>>> value_observed("Oc1ccc2c(c1)COc1c-2cc2ccc(O)cc2c1-c1cccc(F)c1 [Example 32]")
"225 to 227 °C"

Moving on to the next molecule.
response.value for Oc1ccc2c(c1)COc1c-2cc2ccc(O)cc2c1-c1ccc(Cl)c(Cl)c1 [Example 55] (field: melting point) = 143 to 145 °C

---

Biological target: human ERα (Homo sapiens)
Construct: made in house; host or cells: E. coli (crude lysate)
Sequence (P03372 311-547 limits assumed): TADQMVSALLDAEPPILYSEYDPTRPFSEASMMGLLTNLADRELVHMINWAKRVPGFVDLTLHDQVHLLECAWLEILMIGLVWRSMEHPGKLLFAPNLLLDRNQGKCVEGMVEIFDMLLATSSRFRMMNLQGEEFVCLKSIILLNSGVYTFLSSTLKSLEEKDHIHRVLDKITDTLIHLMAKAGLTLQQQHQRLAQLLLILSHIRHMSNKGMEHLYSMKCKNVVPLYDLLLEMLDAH
Experiment: Competition with [3H]-17β-estradiol for binding to ERα
Settings: ligand binding domain of human ERα in E. coli crude lysate, 2 nM [3H]-17β-estradiol, 5-15 hours at room temperature; read-out: ERα (nM) IC50
PARAMETER: IC50 (nM)

>>> value_observed("COc1ccc(-c2c3c(cc4ccc(O)cc24)-c2ccc(O)cc2CO3)cc1")
702
>>> value_observed("COc1ccc(-c2c3c(cc4ccc(O)cc24)-c2ccc(O)cc2CO3)cc1OC")
1820
>>> value_observed("Oc1ccc2c(c1)COc1c-2cc2ccc(O)cc2c1-c1ccccc1Cl")
26
>>> value_observed("Oc1ccc2c(c1)COc1c-2cc2ccc(O)cc2c1-c1cccc(Cl)c1")
63

P = Cc1ccc(-c2c3c(cc4ccc(O)cc24)-c2ccc(O)cc2CO3)cc1F
Q = Oc1ccc2c(c1)COc1c-2cc2ccc(O)cc2c1-c1cccc(F)c1
R = COc1c2c(cc3ccc(O)cc13)-c1ccc(O)cc1CO2
Form: Sort by [IC50] Order [ ascending ] Enter labels, ranked according to the request. Q, R, P
(Q: 93 nM, R: 169 nM, P: 655 nM)

1 = Cc1ccccc1-c1c2c(cc3ccc(O)cc13)-c1ccc(O)cc1CO2
2 = Oc1ccc2c(c1)COc1c-2cc2ccc(O)cc2c1-c1cccc(C(F)(F)F)c1
1 or 2 : whose IC50 is greater? Record your answer as the label of the chosen record. 1
(1: 487 nM, 2: 263 nM)

---

Target: human ERβ (Homo sapiens, UniProt Q92731)
Construct: made in house; host or cells: E. coli (crude lysate)
Assay: Competition with [3H]-17β-estradiol for binding to ERβ
Conditions: ligand binding domain of human ERβ in E. coli crude lysate, 2 nM [3H]-17β-estradiol, 5-15 hours at room temperature
PARAMETER: IC50 (nM)

>>> value_observed("Oc1ccc2c(c1)COc1c-2cc2ccc(O)cc2c1-c1cccc(F)c1")
3.3
>>> value_observed("OCc1ccccc1-c1c2c(cc3ccc(O)cc13)-c1ccc(O)cc1CO2")
349
>>> value_observed("Oc1ccc2c(c1)COc1c-2cc2ccc(O)cc2c1-c1ccc(Cl)c(Cl)c1")
835

A = Oc1ccc2c(c1)COc1c-2cc2ccc(O)cc2c1-c1ccccc1F
B = Oc1ccc2c(c1)COc1c-2cc2ccc(O)cc2c1-c1cc(Cl)cc(Cl)c1
C = C=Cc1c2c(cc3ccc(O)cc13)-c1ccc(O)cc1CO2 [Example 16, 7-Vinyl-5H-dibenzo[c,g]chromene-3,9-diol]
D = Cc1ccc(-c2c3c(cc4ccc(O)cc24)-c2ccc(O)cc2CO3)cc1
Hello, I need these entries ordered by IC50, highest reading first. Thanks! Enter labels, ranked according to the request. B, D, C, A
(B: 34 nM, D: 4.1 nM, C: 2 nM, A: 1.4 nM)

I = Oc1ccc2c(c1)COc1c-2cc2ccc(O)cc2c1Br [Example 13, 7-Bromo-5H-dibenzo[c,g]chromene-3,9-diol]
II = Oc1ccc2c(c1)COc1c-2cc2ccc(O)cc2c1-c1ncccn1
Hi, I'm comparing two records. Which one has the lower IC50, I or II ? Record your answer as the label of the chosen record. I
(I: 1.2 nM, II: 60 nM)

a = Oc1ccc2c(c1)COc1c-2cc2ccc(O)cc2c1-c1cccc(Cl)c1
b = Oc1ccc2c(c1)COc1c-2cc2ccc(O)cc2c1-c1ccoc1
Hi, I'm comparing two records. Which one has the lower IC50, a or b ? Record your answer as the label of the chosen record. b
(b: 2 nM, a: 18 nM)

a = Oc1ccc2c(c1)COc1c-2cc2ccc(O)cc2c1-c1ccc(Cl)cc1
b = Oc1ccc2c(c1)COc1c-2cc2ccc(O)cc2c1-c1ccccn1
Hi, I'm comparing two records. Which one has the lower IC50, a or b ? Record your answer as the label of the chosen record. a
(a: 9.3 nM, b: 108 nM)

a = COc1c2c(cc3ccc(O)cc13)-c1ccc(O)cc1CO2
b = Cc1cc(-c2c3c(cc4ccc(O)cc24)-c2ccc(O)cc2CO3)ccc1F
Hi, I'm comparing two records. Which one has the lower IC50, a or b ? Record your answer as the label of the chosen record. a
(a: 4.3 nM, b: 39 nM)

I = CCCCc1c2c(cc3ccc(O)cc13)-c1ccc(O)cc1CO2 [Example 49, 7-Butyl-5H-dibenzo[c,g]chromene-3,9-diol]
II = Oc1ccc2c(c1)COc1c-2cc2ccc(O)cc2c1-c1ccc(F)c(F)c1
Hi, I'm comparing two records. Which one has the lower IC50, I or II ? Record your answer as the label of the chosen record. I
